Test system: MDA-MB-435
PROTOCOL: NCI tumour cell line growth inhibition, 48 h
METRIC: TGI (µM)
Your answer should be a plain number; it is taken to be in µM.

[[record]]
test_smiles = "COc1cc(/C=C/c2cc(/C=C/c3ccc(O)c(OC)c3)oc(=O)c2)ccc1O"
assay_target = "MDA-MB-435"
metric = "TGI"
value_observed = 22.5


Moving on to the next compound.
Reported TGI ( O=[N+]([O-])c1ccc2ncccc2c1Cl ) = 9.07

* * *

Test system: MOLT-4 leukemia
PROTOCOL: NCI tumour cell line growth inhibition, 48 h
Below is a list of entries, each paired with its recorded TGI value.

# count of solved cases: 8
[[record]]
compound = "S=c1sc2nc(Cl)nc(Cl)c2s1"
assay_target = "MOLT-4 leukemia"
metric = "TGI"
value_observed = "> 29.3 µM"

[[record]]
compound = "O=c1cc(-c2ccccc2)oc2cc(OCCSCCCCCCCCCCSCCOc3ccc4c(=O)cc(-c5ccccc5)oc4c3)ccc12"
assay_target = "MOLT-4 leukemia"
metric = "TGI"
value_observed = "> 100 µM"

[[record]]
compound = "O=C1c2scc(-c3ccc(Cl)cc3)c2-n2cccc21"
assay_target = "MOLT-4 leukemia"
metric = "TGI"
value_observed = "> 100 µM"

[[record]]
compound = "CC1=C[S+](c2ccccc2)c2cccc3cc4ccccc4c1c23 (centres undefined)"
assay_target = "MOLT-4 leukemia"
metric = "TGI"
value_observed = "9.26 µM"

[[record]]
compound = "COc1cc2cc(C(=O)N3CC(CCl)c4ccccc43)[nH]c2c(OC)c1OC (centres undefined)"
assay_target = "MOLT-4 leukemia"
metric = "TGI"
value_observed = "> 100 µM"

[[record]]
compound = "CCCCCCCC(=O)SCC/C=C/[C@@H]1CC(=O)NCc2nc(co2)C2=N[C@@](C)(CS2)C(=O)N[C@@H](C(C)C)C(=O)O1"
assay_target = "MOLT-4 leukemia"
metric = "TGI"
value_observed = "25.7 µM"

[[record]]
compound = "N#Cc1ccc(C(c2ccc(C#N)cc2)n2cncn2)cc1"
assay_target = "MOLT-4 leukemia"
metric = "TGI"
value_observed = "> 5000 µM"

[[record]]
compound = "C[C@]12[C@@H]3CC[C@H]1[C@@H](OC(=O)Nc1cc([N+](=O)[O-])cc([N+](=O)[O-])c1)C(=O)N2CC3"
assay_target = "MOLT-4 leukemia"
metric = "TGI"
value_observed = "> 100 µM"


Moving on to the next compound.
Reported TGI ( COc1ccc2c(c1)[n+](=O)c(C(=O)/C=C/c1cc(OC)c(OC)c(OC)c1)c(C)n2[O-] ) = > 100 µM

* * *

System: HT29 colon
PROTOCOL: NCI tumour cell line growth inhibition, 48 h
METRIC: TGI

Hey, HT29 colon data for O=C1C2c3[nH]c4ccccc4c3[C@@H]3CCCCC3C2C(=O)N1c1ccccc1 (some centres undefined) : TGI came out at 37 µM

Hey, HT29 colon data for COc1cc2c(cc1O)[C@@H]1Cc3c(cc(OC)c(OC)c3Oc3cc4c(cc3OC)CCN(C)[C@@H]4Cc3ccc(O)cc3)[C@H](C2)N1C : TGI came out at > 100 µM

Hey, HT29 colon data for Cn1c2cc(O)cc(O)c2c(=O)c2c([N+](=O)[O-])cccc21 : TGI came out at > 100 µM

* * *

System: HCT-116 colon
PROTOCOL: NCI tumour cell line growth inhibition, 48 h
Below is a list of entries, each paired with its recorded TGI value.
Your answer should be a plain number; it is taken to be in µM.

[[record]]
compound = "CC(=O)OC1CC2C(C)(C)C(=O)C=CC2(C)C2CCC3(C)C(c4ccoc4)OC(=O)C4OC43C12C (stereo not given)"
assay_target = "HCT-116 colon"
value_observed = 11.3

[[record]]
compound = "CCC[CH2][Sn]([CH2]CCC)([O]C(=O)C1CCC(=O)N1)[O]C(=O)C1CCC(=O)N1 (stereo not given)"
assay_target = "HCT-116 colon"
value_observed = 2.04

[[record]]
compound = "O=[N+]([O-])c1ccc(Sc2c3ccccc3nc3ccccc23)nc1"
assay_target = "HCT-116 colon"
value_observed = 4.22


Moving on to the next compound.
Hey, HCT-116 colon data for CC(=O)OC1CC[C@]2(C)C3CC[C@@]4(C)C(CCC4[C@H](C)CCCC(C)C)[C@@H]3CCC2(Br)C1 (stereo not given in full) : TGI came out at 16.5

* * *

Test system: NCI-H23 lung
PROTOCOL: NCI tumour cell line growth inhibition, 48 h
Below is a list of entries, each paired with its recorded TGI value.
Your answer should be a plain number; it is taken to be in µM.

[[record]]
compound = "COc1cnc2c(c1)C(=O)c1c-2n(CCCN2CCCC2)c(=O)c2cc(F)ccc12"
metric = "TGI"
value_observed = 2.4

[[record]]
compound = "CCOC(=O)/C=C(/C(=O)OCC)n1ccc(=O)n(/C(=C/C(=O)OCC)C(=O)OCC)c1=O"
metric = "TGI"
value_observed = 42.7


Reported TGI ( CCCCCCCCCCCCOC1C(CNC(=O)C2OC3OC(C)(C)OC3C2NC(=O)CN2CCCCCC2)OC2OC(C)(C)OC21 (stereo not given) ) = 24.8

* * *

Tested on: BT-549 breast
PROTOCOL: NCI tumour cell line growth inhibition, 48 h; in the data active = GI50 below about 0.43 µM; inactive = the rest
Tick one outcome: t for active, f for inactive

The following compounds have reported results that may help.
[[record]]
compound = "COc1ccc(-c2cc(-c3cc(OC)c(OC)c(OC)c3)c(C#N)c(N3CCOCC3)n2)cc1O"
assay_target = "BT-549 breast"
class = "f"

[[record]]
compound = "C#Cc1cccc(Nc2nc3ccc([N+](=O)[O-])cc3nc2Nc2cccc(C#C)c2)c1"
assay_target = "BT-549 breast"
class = "t"

[[record]]
compound = "CN(CCCl)c1ccc(/C=C/C2=[N+](C)c3ccccc3C2(C)C)cc1"
assay_target = "BT-549 breast"
class = "t"

[[record]]
compound = "C[C@H]1C(Oc2ccc(O)cc2)OC2OC3(C)CCC4[C@H](C)CCC1C24OO3 (stereo not given in full)"
assay_target = "BT-549 breast"
class = "f"


Okay, now this compound:
Input line: Assay outcome for CCCSC1=NC2C(N(CC)C(=O)N2CC)N1/N=C/C=C/c1ccccc1[N+](=O)[O-] (stereo not given) : what was it?
Output line: f

* * *

Test system: PC-3 prostate
PROTOCOL: NCI tumour cell line growth inhibition, 48 h
METRIC: TGI

[[record]]
molecule = "CC(=O)OCC1O[C@@H]([S-])C(OC(C)=O)[C@H](OC(C)=O)[C@@H]1OC(C)=O.[Au+].c1ccc(CN2[CH-]N(Cc3ccccc3)C(c3ccccc3)=C2c2ccccc2)cc1"
assay_target = "PC-3 prostate"
metric = "TGI"
value_observed = "3.7 µM"


Reported TGI ( Nc1nnc(Cn2c(-c3ccccc3)nc3ccc(Br)cc3c2=O)s1 ) = > 100 µM

Reported TGI ( COc1ccc(/C=C2\N=C(NN)N=C2Cl)cc1 ) = > 100 µM

Reported TGI ( Clc1nc2n(c1/C=C/c1cccs1)CCS2 ) = > 100 µM

Reported TGI ( Nc1c(C(=O)Nc2ccccc2F)sc2nc3c(cc12)C(=O)CCC3 ) = > 100 µM

Reported TGI ( C#Cc1cccc(Nc2nc3ccc([N+](=O)[O-])cc3nc2Nc2cccc(C#C)c2)c1 ) = 1.17 µM

* * *

Tested on: CCRF-CEM leukemia
PROTOCOL: NCI tumour cell line growth inhibition, 48 h
METRIC: TGI

# count of solved cases: 5
[[record]]
compound = "CC1(C)CC(=O)c2c(nc(SSc3nc4c(c(-c5ccccc5)c3C#N)C(=O)CC(C)(C)C4)c(C#N)c2-c2ccccc2)C1"
value_observed = "> 10 µM"

[[record]]
compound = "COc1cccc(CC2Cc3ccccc3CC(=O)N2)c1 (configuration not stated)"
value_observed = "> 100 µM"

[[record]]
compound = "C=CCN(C)CN(C)c1nc(N(C)C)nc(N(C)C)n1"
value_observed = "> 100 µM"

[[record]]
compound = "O=C1c2c(O)cc(O)cc2OC(c2ccc(O)cc2O)C1O (configuration not stated)"
value_observed = "> 100 µM"

[[record]]
compound = "O=C1/C(=C/c2ccc(Cl)cc2)N=C(c2ccccc2)N1c1ccc(S(=O)(=O)Nc2nccs2)cc1"
value_observed = "87 µM"


Reported TGI ( CCOC(=O)c1cc2c(n1Cc1ccccc1)-c1oncc1CC2 ) = > 100 µM

Reported TGI ( Cc1c(C)c2c(c(N)c1C#N)C(=O)N(CCN1CCNCC1)C2=O ) = > 100 µM

* * *

System: HT29 colon
PROTOCOL: NCI tumour cell line growth inhibition, 48 h
Below is a list of entries, each paired with its recorded TGI value.

Reported TGI ( Cc1cc(C)c(S(=O)(=O)ONC(=O)OC(C)(C)C)c(C)c1 ) = > 100 µM
